Test system: HEL
test.summary: Concentration required to inhibit herpes simplex virus type 1 induced cytopathogenicity in HEL cells by 50%
Assay type: functional, cell-based
settings: Homo sapiens
measured.metric: EC50

[
  {
    "structure.notation": "OCCOCn1cc2ccnc-2nc1O",
    "measured.metric": "EC50",
    "observed.value": "> 400 µM"
  },
  {
    "structure.notation": "CCCCCCCCc1cc2cn(COCCO)c(O)nc-2n1",
    "measured.metric": "EC50",
    "observed.value": "> 80 µM"
  },
  {
    "structure.notation": "CCCCc1cc2cn(COCCO)c(O)nc-2n1",
    "measured.metric": "EC50",
    "observed.value": "> 400 µM"
  },
  {
    "structure.notation": "CCCCCCCc1cc2cn(COCCO)c(=O)nc2o1",
    "measured.metric": "EC50",
    "observed.value": "> 200 µM"
  },
  {
    "structure.notation": "CCCCCC#Cc1cc2cn(COCCO)c(=O)nc2o1",
    "measured.metric": "EC50",
    "observed.value": "> 200 µM"
  },
  {
    "structure.notation": "CCCCCCCc1cc2cn(COCCO)c(O)nc-2n1",
    "measured.metric": "EC50",
    "observed.value": "> 200 µM"
  },
  {
    "structure.notation": "CCCCCCc1cc2cn(COCCO)c(O)nc-2n1",
    "measured.metric": "EC50",
    "observed.value": "> 80 µM"
  }
]

====

Tested on: CCRF-CEM
test.summary: Concentration required to inhibit human immunodeficiency virus-1 (strain IIIb) induced cytopathogenicity in CEM cells by 50%
Format: functional, cell-based
pEC50: −log10 of the molar value.

[
  {
    "structure.notation": "C#Cc1cn(COCCO)c(=O)[nH]c1=O",
    "pEC50": "< 3.60"
  },
  {
    "structure.notation": "CCCCCCC#Cc1cc2cn(COCCO)c(=O)nc2o1",
    "pEC50": "< 4.30"
  },
  {
    "structure.notation": "CCCCCc1cc2cn(COCCO)c(O)nc-2n1",
    "pEC50": "< 3.60"
  },
  {
    "structure.notation": "CCCCCCCCCCCc1cc2cn(COCCO)c(=O)nc2o1",
    "pEC50": "< 3.60"
  }
]
